test system: RXF 393; experiment: NCI tumour cell line growth inhibition, 48 h
Calls of active or inactive are those of the source. Rule as the data show it: active = GI50 up to about 1.1 µM and inactive = higher.
Listed below: GI50 values for each entry.

Worked examples follow.
- compound: "O=c1[nH]nc(Cc2ccc(Cl)cc2)n1O"
  target_of_assay: "RXF 393"
  property: "GI50"
  experimental_result: "> 100 µM (inactive)"
- compound: "O=C(O)c1ccc(OCc2nc3cc(C(F)(F)F)ccc3nc2-c2ccccc2)cc1"
  target_of_assay: "RXF 393"
  property: "GI50"
  experimental_result: "36.8 µM (inactive)"
- compound: "O=C1C(Cl)=CC2(C=C1Cl)CCNC1=C2C(=O)c2nc[nH]c2C1=O"
  target_of_assay: "RXF 393"
  property: "GI50"
  experimental_result: "23.2 µM (inactive)"

[Q] Please report the recorded GI50 for CC1(C)C2CCC1(C)C(N/C(=C(/C(Cl)=C(Cl)Cl)[N+](=O)[O-])n1nnc3ccccc31)C2 (stereo not given) .
[A] 19.2 µM (inactive)

[Q] Quick one: GI50 for O=c1c(C(c2ccc(C(c3c(O)oc4cc(O)ccc4c3=O)c3c(O)oc4cc(O)ccc4c3=O)cc2)c2c(O)oc3cc(O)ccc3c2=O)c(O)oc2cc(O)ccc12 ?
[A] > 100 µM (inactive)

[Q] Using the record for OCC1C(/C=C/c2ccoc2)ON2CCCC12 (stereo not given) , report its GI50.
[A] > 100 µM (inactive)

[Q] Request the reported GI50 associated with CCCCCCCc1c(Cl)nc(Cl)nc1Cl
[A] 2.47 µM (inactive)

---

test system: T47D; assay: NCI tumour cell line growth inhibition, 48 h
Activity calls are given as the source filed them. Cut-off read from the data, not from the text of the source: active = GI50 up to about 1.1 µM and inactive = higher.
Parameter call: string, one of true (1) for active, false (0) for inactive

Record excerpt, results attached:
- molecule: "CC(C)/C(Cl)=N/OC(=O)Nc1ccc(Br)cc1"
  qualitative_label: "false (0)"
- molecule: "CC(C)(CN)SCc1ccccc1"
  qualitative_label: "false (0)"
- molecule: "CCNC(=O)Nc1ccccn1"
  qualitative_label: "false (0)"
- molecule: "COc1ccc([C@@]23Oc4cc(OC)cc(OC)c4[C@]2(O)[C@H](O)[C@H](C(N)=O)[C@H]3c2ccccc2)cc1 [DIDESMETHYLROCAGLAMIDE]"
  qualitative_label: "true (1)"
- molecule: "COc1ccc(-c2cc(-c3ccccc3)n(C3OCC(OC(C)=O)C(OC(C)=O)C3OC(C)=O)c(=S)c2C#N)cc1 (stereo not given)"
  qualitative_label: "false (0)"

[Q] Assay outcome for Cc1ccc2c(c1)CC1(Cc3cccc(C)c3C1=O)C2=O (stereo not given) : what was it?
[A] false (0)

[Q] Answer briefly: the call reported for Nc1ccccc1.O=P(O)(OP(=O)(O)c1ccccc1)c1ccccc1 in this assay.
[A] false (0)

[Q] Recorded test call requested for Cc1sc(C)c2c1C(=O)CC2N (stereo not given)
[A] false (0)

[Q] Please share the test call associated with CCOC(=O)c1c(N2CCOCC2)ncn(-c2cccc(Cl)c2)c1=O .
[A] false (0)

[Q] For CCCCCCCc1c(Cl)nc(Cl)nc1Cl , which call appears in the assay record?
[A] false (0)

---

system: SR; test: NCI tumour cell line growth inhibition, 48 h
The source made the active and inactive calls. No stated cut-off is given here; in the data, active = GI50 up to about 1.1 µM and inactive = higher.
property: GI50

- compound: "Nc1ncnc2c1ncn2CC(O)C(=O)O (stereo unspecified)"
  target_of_assay: "SR"
  GI50: "> 100 µM (inactive)"
- compound: "COC(=O)/C(=C(/C)c1ccco1)P(=O)(OC)OC"
  target_of_assay: "SR"
  GI50: "> 100 µM (inactive)"
- compound: "CC1(CF)SCc2nc3ccccc3n21 (stereo unspecified)"
  target_of_assay: "SR"
  GI50: "> 100 µM (inactive)"
- compound: "CSC1=C(C#N)C(=O)N(c2ccc(C)cc2)C(=O)C1C#N (stereo unspecified)"
  target_of_assay: "SR"
  GI50: "> 100 µM (inactive)"
- compound: "C=C(C)[C@H]1CC[C@@]2(C)C(C1)[C@H](C)CC[C@@H]2O (stereo partly specified)"
  target_of_assay: "SR"
  GI50: "> 100 µM (inactive)"

Could you now consider this next compound?
[Q] What value of measured GI50 is listed for COC(=O)CCCCC/C(=C\C(=O)C(Cl)(Cl)Cl)OC ?
[A] 18.1 µM (inactive)

---

test system: SN12C; test: NCI tumour cell line growth inhibition, 48 h
Calls of active or inactive are those of the source. No stated cut-off is given here; in the data, active = GI50 up to about 1.1 µM and inactive = higher.
property: GI50

Some solved cases for reference:
- molecule: "N=C(N)C1CN(CC=O)C(=O)NC1=O (configuration not stated)"
  GI50: "> 100 µM (inactive)"
- molecule: "[O-]c1c[n+](CCCC[n+]2cc([O-])on2)no1"
  GI50: "> 100 µM (inactive)"

[Q] So what does the record say about GI50 for COc1ccc(-c2c(C3=NCCCN3)nnn2-c2ccc([N+](=O)[O-])cc2)cc1 ?
[A] > 100 µM (inactive)

[Q] Return reported GI50; argument: CC(C)(CO)CNc1cc(=O)[nH]c(N)n1
[A] > 100 µM (inactive)

[Q] GI50 for c1ccc2c3c(c(N4CCNCC4)nc2c1)CCCC3 ?
[A] 16.3 µM (inactive)

[Q] Fill in the blank: the reported GI50 of Cc1ccc2c(c1C)CC1(Cc3c(C)ccc(C)c3C1=O)C2=O (configuration not stated) is ____.
[A] > 100 µM (inactive)

[Q] Requested field: GI50. Item: CC(C)c1ccc(/C=C2/C=C(c3ccc4ccccc4c3)OC2=O)cc1
[A] 57.1 µM (inactive)

[Q] GI50 for CC12CCC(CC1)C(C)(C)O2 [EUCALYPTOL] ?
[A] 7.08 µM (inactive)

[Q] Given the entry COC1(OC)C2(Cl)C3=CCCC=C3C1(Cl)C(Cl)=C2Cl , report its measured GI50.
[A] 28.7 µM (inactive)

[Q] Which value of GI50 has been reported for CC(C)=CCC[C@@H](C)C1=CC(=O)C(C)=C(O)C1=O [ISOPEREZONE] in the records?
[A] 10.7 µM (inactive)

[Q] What value of GI50 has been recorded for this entry: OC(Cc1cccnc1)(c1ccccc1)c1ccccc1
[A] > 100 µM (inactive)

[Q] Consider the molecule O=c1[nH]nc(Cc2ccc(Cl)cc2)n1O and give its measured GI50.
[A] > 100 µM (inactive)

---

tested on: TK-10; test: NCI tumour cell line growth inhibition, 48 h
Active and inactive are the calls of the source. No stated cut-off is given here; in the data, active = GI50 up to about 1.1 µM and inactive = higher. Square brackets hold non-standard residues; d marks the D form. Peptide text beside a SMILES is read from it. * marks the point of attachment. X26 = COC1=CC(=O)N(C(=O)[C@@H](O*)C(C)C)[C@H]1Cc1ccccc1; NMeL = CN[C@@H](CC(C)C)C(=O)O; Hexanoyl = CCCCCC(=O)*
# reported GI50; entries follow

- molecule: "CCC(=O)C(C(C)/C=C/CCSc1ccccc1)C(O)CCCCCC(=O)OC (centres undefined)"
  GI50: "> 100 µM (inactive)"
- molecule: "CCCC(CC)c1cc(O)c(O)cc1C(CC)CCC (centres undefined)"
  GI50: "> 10 µM (inactive)"
- molecule: "O=C(O)c1ccc(C2=Cc3cc(Cl)ccc3OC2)cc1"
  GI50: "> 100 µM (inactive)"
- molecule: "C/C(=N/NC(=S)N1CCCCCC1)c1cccc(/C(C)=N\\NC(=S)N2CCCCCC2)n1"
  GI50: "1.77 µM (inactive)"
- molecule: "O=[N+]([O-])c1ccc2nc(/C(=N\\Nc3ccccc3)C(O)c3ccc4c(c3)OCO4)c(O)nc2c1 (centres undefined)"
  GI50: "> 100 µM (inactive)"
- molecule: "O=C1c2ccccc2-c2oc(=O)c3ccccc3c21"
  GI50: "> 100 µM (inactive)"
- molecule: "CCCCCC(=O)N[C@H](C(=O)N[C@H](C(=O)N(C)[C@@H](CC(C)C)C(=O)N1CCC[C@H]1C(=O)N1CCC[C@H]1C(=O)O[C@H](C(=O)N1C(=O)C=C(OC)[C@@H]1Cc1ccccc1)C(C)C)C(C)C)C(C)C (Hexanoyl-VV[NMeL]PP-X26)"
  GI50: "> 100 µM (inactive)"
- molecule: "COC(=O)C(C(=O)C(=O)Nc1cccc(C)c1)C1=NC(N)SS1 (centres undefined)"
  GI50: "> 100 µM (inactive)"

[Q] So what's the measured GI50 for this one? CC(=O)N(C(C)=O)n1c(Cc2ccc(Cl)cc2)n[nH]c1=O
[A] > 100 µM (inactive)

---

system: Hs-578T; test: NCI tumour cell line growth inhibition, 48 h
The source made the active and inactive calls. No stated cut-off is given here; in the data, active = GI50 up to about 1.1 µM and inactive = higher.
Give one outcome, nothing more. List: label 1 for active, label 0 for inactive

- compound: "COc1ccc(C=C2C(C)=NN(c3cccc(Cl)c3)C23C(Cl)C(=O)N3c2nc3ccccc3s2)cc1 (centres undefined)"
  qualitative_label: "label 0"
- compound: "C=CCOc1cccc(C2(O)c3ccccc3C3=NCCCN32)c1 (centres undefined)"
  qualitative_label: "label 0"
- compound: "CC(=O)Oc1ccc(/C=C/C(=O)NCCOC(=O)/C=C/c2ccc(OC(C)=O)c(OC(C)=O)c2)cc1OC(C)=O"
  qualitative_label: "label 0"
- compound: "CN(C)c1nc2oc(-c3ccccc3)c(-c3ccccc3)c2c2nncn12"
  qualitative_label: "label 0"
- compound: "Cc1nc2ccc(S(=O)(=O)Nc3ccccn3)cc2c(=O)n1NS(=O)(=O)c1ccccn1"
  qualitative_label: "label 0"
- compound: "C=CCOc1ccc(C2(c3ccc(OCC=C)cc3)C(=O)Nc3ccccc32)cc1"
  qualitative_label: "label 0"
- compound: "O=C1c2cccc3cccc(c23)C2NCCCN12 (centres undefined)"
  qualitative_label: "label 0"
- compound: "Cc1ccc(S(=O)(=O)Nn2c(C)cc3ccc(S(=O)(=O)Nc4ccccc4[N+](=O)[O-])cc3c2=O)cc1"
  qualitative_label: "label 0"
- compound: "COC(=O)C1=C(C(=O)NNc2ccccc2)N(c2cccnc2Cl)C(c2ccccc2)=CC1c1ccccc1 (centres undefined)"
  qualitative_label: "label 0"
- compound: "CC1(C)OC(=O)C(C#N)=C1C[n+]1ccccc1"
  qualitative_label: "label 0"

[Q] Returns: the outcome recorded for CCOC(=O)NC(Nc1ccc(OC(F)(F)F)cc1)(C(F)(F)F)C(F)(F)F in this assay.
[A] label 0

[Q] Dear colleague, could you share the recorded outcome for CCCCCCCc1c(Cl)nc(Cl)nc1Cl when you have a moment?
[A] label 0

[Q] Can you look up the reported call for NC1=NC(=O)/C(=C2\CCNC(=O)c3[nH]c(Br)cc32)N1 for me?
[A] label 0

[Q] Answer briefly: the call reported for COC(C(=O)C(O)C(C)O)C1Cc2cc3cc(OC4CC(OC(C)=O)C(OC5CC(O)C(OC)C(C)O5)C(C)O4)cc(O)c3c(O)c2C(=O)C1OC1CC(OC2CC(OC3CC(C)(O)C(OC(=O)C(C)C)C(C)O3)C(O)C(C)O2)C(O)C(C)O1 (centres undefined) in this assay.
[A] label 1
